Test system: SF-295
MEASUREMENT_DESCRIPTION: NCI tumour cell line growth inhibition, 48 h
Active and inactive are the calls of the source. No stated cut-off is given here; in the data, active = GI50 up to about 1.1 µM and inactive = higher.
# reported GI50; entries follow

In the examples that follow, each entry is paired with its recorded GI50.
CC(=O)OCC1OC(OC(C)=O)C(Nc2ncc(-c3ccc(C)cc3)s2)C(OC(C)=O)C1OC(C)=O (stereo not given): 22.9 µM (inactive)
CCCn1c(=O)c2nn3c(=O)n(CCC)c(=O)c3nn2c1=O: > 100 µM (inactive)

stdin: Fill in the blank: the reported GI50 of COc1ccc2nc3cc(Cl)ccc3c(NCCCN(Cc3cc(OC)c(OC)c(OC)c3)Cc3cc(OC)c(OC)c(OC)c3)c2c1 is ____.
stdout: 3.33 µM (inactive)

stdin: Fill in the blank: the reported GI50 of CN(CCNC(=O)c1nn(C)c2c1Cc1ccccc1-2)CCNC(=O)c1nn(C)c2c1Cc1ccccc1-2 is ____.
stdout: 16 µM (inactive)

stdin: Fill in the blank: the reported GI50 of COc1cc2c3c(c1)CCCN3CCC2 is ____.
stdout: > 10 µM (inactive)

---

System: OVCAR-5
MEASUREMENT_DESCRIPTION: NCI tumour cell line growth inhibition, 48 h
The source made the active and inactive calls. Cut-off read from the data, not from the text of the source: active = GI50 up to about 1.1 µM and inactive = higher.
Permitted responses: active, inactive

O=S1(=O)OCCOS(=O)(=O)C1(Br)Cc1ccccc1: inactive

stdin: Which outcome was assigned to CC(C)(C)C(=C[S+]([O-])/N=C/c1ccccc1)C(C)(C)C (configuration not stated) in this test?
stdout: inactive

stdin: Which outcome was assigned to CCCCc1ccc(-n2sc3ncccc3c2=O)cc1 in this test?
stdout: inactive

stdin: Which outcome was assigned to [O-]c1c2cc(-[n+]3c(-c4ccccc4)cc(-c4ccccc4)cc3-c3ccccc3)cc1CO[C@@H](c1ccccc1)[C@H](c1ccccc1)OCCOCCO[C@@H](c1ccccc1)[C@H](c1ccccc1)OC2 in this test?
stdout: active

stdin: Which outcome was assigned to O=C(O)CCSC(=S)Nc1ccc([N+](=O)[O-])cc1 in this test?
stdout: inactive

stdin: Which outcome was assigned to CC(=O)c1cccc(Nc2c3ccccc3nc3occc23)c1 in this test?
stdout: inactive

stdin: Which outcome was assigned to O=C1C=CC(=O)N1c1ccc2c(c1)Cc1cc(NC(=O)C(F)(F)F)ccc1-2 in this test?
stdout: inactive

---

Test system: NCI-H460
MEASUREMENT_DESCRIPTION: NCI tumour cell line growth inhibition, 48 h
Active and inactive are the calls of the source. No stated cut-off is given here; in the data, active = GI50 up to about 1.1 µM and inactive = higher. Square brackets hold non-standard residues; d marks the D form. Peptide text beside a SMILES is read from it. * marks the point of attachment. X26 = COC1=CC(=O)N(C(=O)[C@@H](O*)C(C)C)[C@H]1Cc1ccccc1; NMeV = CN[C@H](C(=O)O)C(C)C; Hexanoyl = CCCCCC(=O)*
Permitted responses: active, inactive

COC[C@@H](/N=C/c1ccc(OC)cc1)C(C)C: inactive
O=c1[nH]c(=O)n(CCOc2ccccc2)cc1Nc1ccccc1: inactive
COC1=CC(=O)c2c(O)c3c(c(O)c2C1=O)C[C@](C)(O)C[C@@H]3O: inactive
CNC(=O)OCc1nc(SC)n(C)c1CO: inactive
CC(=O)Nc1ccc2c3c(cc(O)c2c1)N(C(=O)CCCCCCC(=O)Nc1ccc2c4c(cc(O)c2c1)N(C(=O)OC(C)(C)C)CC4CCl)CC3CCl (centres undefined): active
CC(=O)C1(O)CC2(c3ccccc3)C(=O)C1(c1ccccc1)C(c1ccccc1)=C2c1ccccc1 (centres undefined): inactive

stdin: Which outcome was assigned to CC(C)OP(=O)(OC(C)C)C(C(C)C)N(C)/C(N)=N\C1=NC(C(F)(F)F)(C(F)(F)F)N=C(C(C(F)(F)F)C(F)(F)F)O1 (centres undefined) in this test?
stdout: inactive

stdin: Which outcome was assigned to CCCCCC(=O)N[C@H](C(=O)N[C@H](C(=O)N(C)[C@H](C(=O)N1CCC[C@H]1C(=O)N1CCC[C@H]1C(=O)O[C@H](C(=O)N1C(=O)C=C(OC)[C@@H]1Cc1ccccc1)C(C)C)C(C)C)C(C)C)C(C)C (Hexanoyl-VV[NMeV]PP-X26) in this test?
stdout: inactive

stdin: Which outcome was assigned to Cc1nnc2n1N=C(c1cc(F)c(Cl)cc1Cl)/C(=C/c1ccc3c(c1)OCO3)S2 in this test?
stdout: inactive

---

System: MDA-MB-435
MEASUREMENT_DESCRIPTION: NCI tumour cell line growth inhibition, 48 h
Activity calls are given as the source filed them. No stated cut-off is given here; in the data, active = GI50 up to about 1.1 µM and inactive = higher.
Permitted responses: 1 (active), 0 (inactive)

CCOC(=O)c1ccc(/N=c2\oc3ccc(OC)cc3cc2-c2nc3ccccc3[nH]2)cc1: 0
COc1cc(C2c3[nH]c4ccccc4c3[C@@H](Nc3ccc(C#N)cc3)[C@H]3COC(=O)N23)cc(OC)c1O (some centres undefined): 1
O=C1Nc2ccccc2/C1=C1\C(=O)Nc2ccccc21: 0

Consider the additional compound presented here.
stdin: Which outcome was assigned to Clc1cc(OCc2nn3c(Cc4ccccc4)nnc3s2)ccc1OCc1nn2c(Cc3ccccc3)nnc2s1 in this test?
stdout: 0

---

Test system: MCF7
MEASUREMENT_DESCRIPTION: NCI tumour cell line growth inhibition, 48 h
Calls of active or inactive are those of the source. Rule as the data show it: active = GI50 up to about 1.1 µM and inactive = higher.
MEASUREMENT_KIND: GI50

In the examples that follow, each entry is paired with its recorded GI50.
C/C=C(\C)CC/C=C/CO[Si](C)(C)C(C)(C)C: 40.1 µM (inactive)
COc1c(C(=O)/C(=N/Nc2ccccc2)C(C)=O)c(O)c(OC)c2occc12: 25.4 µM (inactive)
FC(F)(F)c1ccc2nc3n(c2c1)C(c1c(Cl)cccc1Cl)SC3 (stereo not drawn): 16.1 µM (inactive)

stdin: Fill in the blank: the reported GI50 of COc1ccc2nc3n(c2c1)C(c1c(F)cccc1Cl)SC3 (stereo not drawn) is ____.
stdout: > 100 µM (inactive)

stdin: Fill in the blank: the reported GI50 of CC1(C)CC2(C)CC1CC2NC(=O)CCN1CCOCC1 (stereo not drawn) is ____.
stdout: > 100 µM (inactive)

stdin: Fill in the blank: the reported GI50 of N=NCC(=O)OC(COCc1ccccc1)COCc1ccccc1 is ____.
stdout: 65 µM (inactive)

stdin: Fill in the blank: the reported GI50 of Clc1ccc(COc2ccccc2/C=N/c2c(-c3ccco3)nc3ccccn23)c(Cl)c1 is ____.
stdout: 12.5 µM (inactive)

stdin: Fill in the blank: the reported GI50 of CC1CC2OC(=N)C1(C#N)C2(C#N)C#N (stereo not drawn) is ____.
stdout: 28 µM (inactive)

---

System: SF-539
MEASUREMENT_DESCRIPTION: NCI tumour cell line growth inhibition, 48 h
Activity calls are given as the source filed them. No stated cut-off is given here; in the data, active = GI50 up to about 1.1 µM and inactive = higher.
Permitted responses: true (1) for active, false (0) for inactive

These solved cases illustrate the format of a correct answer.
CC1=NNC(=O)C1C1CC(c2c[nH]c3ccccc23)=NN(c2ccccc2)C1=O (stereo not given): false (0)
CNC(=O)OCc1nc(SC)n(C)c1CO: false (0)
COc1cc(C2c3cc4c(cc3OC(N3CCOCC3)C2C)OCO4)cc(OC)c1OC (stereo not given): true (1)

stdin: Which outcome was assigned to c1ccc(CN2CCCN3CCN(CCCN(Cc4ccccc4)CC3)CC2)cc1 in this test?
stdout: false (0)

stdin: Which outcome was assigned to CC(C)(Oc1ccc2c(=O)cc(-c3ccccc3)oc2c1)C(=O)Nc1c(Cl)cccc1Cl in this test?
stdout: false (0)

stdin: Which outcome was assigned to COc1cc2c(c(O)c1OC)C(=O)C(Cc1ccc(O)cc1)CO2 (stereo not given) in this test?
stdout: false (0)

stdin: Which outcome was assigned to O=C(/C=C/c1ccccc1)/C=C/c1ccccc1O in this test?
stdout: false (0)

stdin: Which outcome was assigned to COc1cc(C2c3[nH]c4ccccc4c3[C@@H](Nc3ccc(C#N)cc3)[C@H]3COC(=O)N23)cc(OC)c1O (stereo not given in full) in this test?
stdout: true (1)

stdin: Which outcome was assigned to O=S(=O)(O)c1cc(Cl)c(O)c2ncc(Cl)cc12 in this test?
stdout: false (0)

stdin: Which outcome was assigned to CC(C)C1CC[C@@H](C)C[C@@]1(O)CC(N)=O (stereo not given in full) in this test?
stdout: false (0)

stdin: Which outcome was assigned to C=CC[C@]12C[C@@H](C(=O)OC)N(C(=O)OC)[C@H]1N(S(=O)(=O)c1ccccc1)c1ccccc12 in this test?
stdout: false (0)

stdin: Which outcome was assigned to CC(C)(C)N1C=[N+](C(C)(C)C)CC1 in this test?
stdout: false (0)

stdin: Which outcome was assigned to COc1ccc(/N=C\c2ccc(N(CCC#N)CCC#N)cc2)cc1 in this test?
stdout: false (0)

stdin: Which outcome was assigned to COc1ccc(CCN2CCOCC2)cc1 in this test?
stdout: false (0)

stdin: Which outcome was assigned to CO/C=C/c1cc2c(cc1C(OC)OC)OCO2 in this test?
stdout: false (0)

stdin: Which outcome was assigned to N#CCC(=O)N1CCCOCCC1 in this test?
stdout: false (0)

stdin: Which outcome was assigned to O=C(Nc1ccc(C(F)(F)F)cc1)NC(F)(F)F in this test?
stdout: false (0)

stdin: Which outcome was assigned to [O-][n+]1c2ccccc2[n+]([O-])c2cc(Br)ccc21 in this test?
stdout: false (0)

stdin: Which outcome was assigned to N=C(N)NS(=O)(=O)c1ccc(Nc2c3ccccc3nc3c(C(=O)Nc4ccc(S(N)(=O)=O)cc4)ccc(Cl)c23)cc1 in this test?
stdout: false (0)

stdin: Which outcome was assigned to Cc1ccc(-c2cc(N)n(-c3nc4c([nH]3)c(=O)n(C)c(=O)n4C)n2)cc1 in this test?
stdout: false (0)

stdin: Which outcome was assigned to Cc1ccccc1-n1c(N)c(-c2nc3ccccc3[nH]2)sc1=S in this test?
stdout: false (0)

stdin: Which outcome was assigned to Cc1cc(C)n(CN(CCCCO)Cn2nc(C)cc2C)n1 in this test?
stdout: false (0)

stdin: Which outcome was assigned to COc1cc2c(c(OC)c1OC)C(=O)[C@@H](O)[C@H]2NC(N)=O in this test?
stdout: false (0)
